- tested_system: Q96JY6
- experiment_summary: holdup assay
- Parameters: key: below the threshold = too weak to quantify, mostly under pKd 3.1 to 4
- condition_label: plain residues with an end cap or a label only (N-terminal biotin on a linker: ttds)
value_type: pKd

Examples from the recorded data:
>  <binder>
QSARYRDTEL [TJP2, Q9UDY2]

>  <measured_result>
below the threshold

$$$$
>  <binder>
RSLEEEESQL [GRASP, Q7Z6J2]

>  <measured_result>
below the threshold

$$$$
>  <binder>
STLTIFETAL [ABCC4, O15439]

>  <measured_result>
below the threshold

$$$$
>  <binder>
SVWLRKETRV [CYSLTR2, Q9NS75]

>  <measured_result>
below the threshold

$$$$

Now let's try a different one.
Look up pKd for this binder: PKTPPTDTSV [KIR3DL3, Q8N743]
below the threshold
